The reported measurements were obtained from the supplement of paper PMC4466140.

- Subject of test: AgBbc1
- Test summary: SPOT peptide array binding signal intensity (averaged, normalized) (arbitrary units (background-subtracted, floor 0; scale differs between SH3 domains)); higher = stronger binding of the SH3 domain to the peptide
For each record, write down the corresponding SPOT peptide array binding signal intensity.

# annotated cases, reported SPOT peptide array binding signal intensity shown
TKRKRPARLIFYDSK = 40.2
GPPPPLPPPLFPSSS = ≤ 0
KKAPPPVVKPKPRNF = 58
HKVLRPFLLRRLKKD = ≤ 0
RSKRLFPVRPMATAH = 36.2

I would be grateful if you could provide SPOT peptide array binding signal intensity for each of the following entries.
1. SRYRRPLTLLLLKPF
2. DLPLPDLPPEPPTEL

[6, "≤ 0"]

List reported SPOT peptide array binding signal intensity for each of these binders:
1. VATSTSPKLPPRGKQ
2. RSLRKRPTSPSISGS
3. KKIRLIFTYPSTVGR
4. TEVPIPRRPPPPQAA
5. FPPKRKPLLRPQRSD
6. PPIPNAPLSPAPAVP
7. YLTRPLPSTPNEDSR

[548, 232, 22.8, 130, 332, "≤ 0", 39.5]
